target: pooled human IgG (human IgG1,2,3 and 4)
Give measured Enzyme Activity Endpoint Assay: Fc for each item. Keep answers brief.
One number for each entry, in ng/µL.

protein	unit_name	obs_value
PRT-101 (protein) MANQEIRYSEVTPYHVTSVWTKGVTPPAKFTQGEDVFHAPYVANQGWYDITKTFNGKDDLLCGAATAGNMLHWWFDQNKEKIEAYLKKHPDKQKIMFGDQELLDVRKVINTKGDQTNSELFNYFRDKAFPGLSARRIGVMPDLVLDMFINGYYLNVYKTQTTDVNRTYQEKDKRGGIFDAVFTRGDQSKLLTSRHDFKEKNLKEISDLIKKELTEGKALGLSHTYANVRINHVINLWGADFDSNGNLKAIYVTDSDSNASIGMKKYFVGVNSAGKVAISAKEIKEDNIGAQVLGLFTLSTGQDSWNQTN	ng/µL	204

Would you mind telling me what Enzyme Activity Endpoint Assay: Fc value was observed for PRT-316 (protein) MTITSVWTKGVTPPTPEDFRKNNEDVLHAPYVANQGWYDITKTFDGKDNLLCGAATAGNMLHWWFDQNKEEIERYLKKHPEKQKIIFNNQELFDVKAAIDTKDSQTNSKLFNYFRDKAFPNLSARQLGVMPDLVLDMFINGYYLNLGKTQSTDVNRPYQDKDKRGGIFDAVFTRGDQTTLLTARHDLKNKGLNEISDLIKQELTEGKALALSHTYANVRINHVINLWGADFDAEGNLIAIYVTDSDANASIGMKKYFVGRNANGKVAISAKKIEGDNIGAQVLGLFTLSTGQDIWQKLS ?
347
